- system: Heat shock factor protein 1 (Mus musculus, UniProt P38532)
- Sequence (P38532 whole entry): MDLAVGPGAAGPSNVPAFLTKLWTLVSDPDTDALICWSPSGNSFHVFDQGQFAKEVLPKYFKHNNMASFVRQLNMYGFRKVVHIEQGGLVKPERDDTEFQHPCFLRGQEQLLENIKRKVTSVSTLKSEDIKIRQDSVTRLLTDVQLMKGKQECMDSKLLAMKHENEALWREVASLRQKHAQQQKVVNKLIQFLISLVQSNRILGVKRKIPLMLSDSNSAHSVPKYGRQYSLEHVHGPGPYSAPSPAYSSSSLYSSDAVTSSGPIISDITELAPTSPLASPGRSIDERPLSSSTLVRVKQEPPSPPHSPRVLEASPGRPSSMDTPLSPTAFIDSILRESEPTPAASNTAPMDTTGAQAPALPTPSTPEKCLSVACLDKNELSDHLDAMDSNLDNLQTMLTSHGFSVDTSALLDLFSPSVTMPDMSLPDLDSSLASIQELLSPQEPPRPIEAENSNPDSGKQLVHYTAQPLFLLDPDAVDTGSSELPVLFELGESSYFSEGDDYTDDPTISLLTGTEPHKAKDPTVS
- protocol summary: enhancement of HSF1-driven luciferase signal – cell-based, NIH3T3, luminescence, dose retest, confirmation (AID 435004);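 further: stress induced by proteasome inhibitor MG132 added 30 min after compound; luciferase reporter driven by HSF1 response element in NIH3T3 cells; actives raise luminescence as potentiators of the MG132 stress response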
- Type: functional
The source made the active and inactive calls.
Entry note: the call must match one of Yes for active, No for inactive

{"compound": "COC(=O)c1nnn(CC(=O)NC(=O)Nc2ccc(F)cc2)c1C(=O)OC", "system": "Heat shock factor protein 1 (Mus musculus, UniProt P38532)", "assigned category": "No"}
{"compound": "COc1ccc(NC(=O)COc2cccc3c2CCN(Cc2cccnc2)C3=O)c(OC)c1", "system": "Heat shock factor protein 1 (Mus musculus, UniProt P38532)", "assigned category": "No"}

Task: Per the records of this test, what outcome belongs to COc1ccc(C(CCNCc2ccccc2)c2ccc(F)cc2)cc1 (configuration not stated) ?
Output: No

Task: Also check O=C(N/N=C/c1ccccn1)c1cc(-c2ccc(Br)cc2)nc2ccccc12
Output: Yes

Task: Also check O=C(Cc1c(O)c2ccccc2[nH]c1=O)NCc1ccccc1
Output: No

Task: Also check CC(CC#CCN1CCOCC1)OCCC#N (configuration not stated)
Output: No

Task: Also check Cc1cccc2cc3c(nc12)S/C(=N/CC1CCCO1)N(Cc1ccco1)C3 (configuration not stated)
Output: Yes

Task: Also check CCC(C)(C)n1nnnc1C(c1cc2cc(C)cc(C)c2nc1O)N1CCN(Cc2ccc3c(c2)OCO3)CC1 (configuration not stated)
Output: No

Task: Also check CSc1ccc(/C=N\Nc2nncn2N)cc1
Output: Yes

Task: Also check Cc1n[nH]c(O)c1/C=N/Cc1cccs1
Output: No

Task: Also check O=S(=O)(Nc1ccc(-c2nnc3n2CCCCC3)cc1)c1ccc2nc(O)oc2c1
Output: No

Task: Also check O=C1C=C(c2ccccc2)CC(/C=C/c2ccccc2)C1 (configuration not stated)
Output: No

* * *

- system: Sentrin-specific protease 8 (Homo sapiens, UniProt Q96LD8);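 further: luminescence read-out of SENP8 inhibition, dose-response confirmation following an ultra-high-throughput screen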
- Sequence (Q96LD8 whole entry): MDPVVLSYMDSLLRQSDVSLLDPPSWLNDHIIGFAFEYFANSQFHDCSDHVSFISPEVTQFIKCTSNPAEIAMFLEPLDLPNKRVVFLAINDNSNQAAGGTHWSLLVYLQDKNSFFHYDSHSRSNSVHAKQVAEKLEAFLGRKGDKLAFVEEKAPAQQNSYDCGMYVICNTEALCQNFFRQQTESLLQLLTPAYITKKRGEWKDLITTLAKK
- Type: functional
The source made the active and inactive calls.
Entry note: the call must match one of 1 = active, -1 = inactive

Task: Per the records of this test, what outcome belongs to Cc1cccc(Nc2nc(-c3ccc(F)c(C)c3)cs2)n1 ?
Output: 1

Task: Also check Cc1c(/C=C/C(=O)c2ccccc2O)cnn1C
Output: 1
